# target_of_assay: anti-TNFα antibody-Fab (IgG-Fab derived from anti-TNFα monoclonal antibody, adalimumab) (Homo sapiens, UniProt P01834+P01857)
# Construct: cleaving a humanized monoclonal IgG formulation as a starting material into a Fab fragment and an Fc fragment by papain; purchased
# experiment_summary: Biacore 3000 surface plasmon resonance, affinity of SpG-β1 mutants for immobilized IgG-Fab
# Assay type: binding
# reported_conditions: Table 2, Example 3; GST-fused one-domain peptide; 25° C., pH 7.4
Where no end group is shown, it is not given here.
Overview of recorded koff for various substances
Please state the figure in s⁻¹; there is no need to write the unit.

Completed entries (count: 5):
substance | koff [s⁻¹]
K13T/E19I/A23T/F30L/Y33F/D47N/K50R: GST-fused one-domain SpG-β1 mutant, amino acid SEQ ID NO: 45 (TTYKLILNGKTLTGETTTIAVDTATAEKVLKQFANDNGVDGEWTYDNATRTFTVTE; also: GST-fused) | 0.0046
K13T/E19I/F30L/Y45F/D47Y: GST-fused one-domain SpG-β1 mutant, amino acid SEQ ID NO: 83 (TTYKLILNGKTLTGETTTIAVDAATAEKVLKQYANDNGVDGEWTFDYATKTFTVTE; also: GST-fused) | 0.007
K13T/E19I/D22E/A24T/F30L/Y33F/D47G: GST-fused one-domain SpG-β1 mutant, amino acid SEQ ID NO: 79 (TTYKLILNGKTLTGETTTIAVEATTAEKVLKQFANDNGVDGEWTYDGATKTFTVTE; also: GST-fused) | 0.0053
K13T/E19I/K28I/F30L/N35F: GST-fused one-domain SpG-β1 mutant, amino acid SEQ ID NO: 57 (TTYKLILNGKTLTGETTTIAVDAATAEIVLKQYAFDNGVDGEWTYDDATKTFTVTE; also: GST-fused) | 0.0063
K13T/E15Q/E19V/F30L/V39L: GST-fused one-domain SpG-β1 mutant, amino acid SEQ ID NO: 61 (TTYKLILNGKTLTGQTTTVAVDAATAEKVLKQYANDNGLDGEWTYDDATKTFTVTE; also: GST-fused) | 0.0063

Note: attention shifts to another entry.
Report koff for K13T/D22N/A23T/T25S/F30L/A48T: GST-fused one-domain SpG-β1 mutant, amino acid SEQ ID NO: 73 (TTYKLILNGKTLTGETTTEAVNTASAEKVLKQYANDNGVDGEWTYDDTTKTFTVTE; also: GST-fused) please.
0.0098

====

# target_of_assay: anti-TNFα antibody-Fab (IgG-Fab derived from anti-TNFα monoclonal antibody, adalimumab) (Homo sapiens, UniProt P01834+P01857)
# Construct: cleaving a humanized monoclonal IgG formulation as a starting material into a Fab fragment and an Fc fragment by papain; purchased
# experiment_summary: Biacore 3000 surface plasmon resonance, affinity of SpG-β1 mutants for immobilized IgG-Fab
# Assay type: binding
# reported_conditions: Table 2, Example 3; GST-fused one-domain peptide; 25° C., pH 7.4
Where no end group is shown, it is not given here.
assay_metric: kon (s/M)
Please state the figure in s/M; there is no need to write the unit.

Completed entries (count: 2):
substance | unit_abbrev | kon
K13T/E19I/K28I/F30L/N35F: GST-fused one-domain SpG-β1 mutant, amino acid SEQ ID NO: 57 (TTYKLILNGKTLTGETTTIAVDAATAEIVLKQYAFDNGVDGEWTYDDATKTFTVTE; also: GST-fused) | s/M | 88000
K13T/E19I/F30L/D47N: GST-fused one-domain SpG-β1 mutant, amino acid SEQ ID NO: 43 (TTYKLILNGKTLTGETTTIAVDAATAEKVLKQYANDNGVDGEWTYDNATKTFTVTE; also: GST-fused) | s/M | 92600

Report kon for K13T/E19I/Y33F/N35Y/V39L: GST-fused one-domain SpG-β1 mutant, amino acid SEQ ID NO: 41 (TTYKLILNGKTLTGETTTIAVDAATAEKVFKQFAYDNGLDGEWTYDDATKTFTVTE; also: GST-fused) please.
90500

====

Overview of recorded KA Vs. Wild for various substances
# target_of_assay: anti-TNFα antibody-Fab (IgG-Fab derived from anti-TNFα monoclonal antibody, adalimumab) (Homo sapiens, UniProt P01834+P01857)
# Construct: cleaving a humanized monoclonal IgG formulation as a starting material into a Fab fragment and an Fc fragment by papain; purchased
# experiment_summary: Biacore 3000 surface plasmon resonance, affinity of SpG-β1 mutants for immobilized IgG-Fab
# Assay type: binding
# reported_conditions: Table 2, Example 3; fold of wild-type KA; GST-fused one-domain peptide
Where no end group is shown, it is not given here.
Form: value (number only, do not type unit).

Completed entries (count: 3):
substance | KA Vs. Wild
K13T/E19I/V21D/T25M/F30L/Y33F/N35F/D47A: GST-fused one-domain SpG-β1 mutant, amino acid SEQ ID NO: 55 (TTYKLILNGKTLTGETTTIADDAAMAEKVLKQFAFDNGVDGEWTYDAATKTFTVTE; also: GST-fused) | 9.3
K13S/E19I/F30L: GST-fused one-domain SpG-β1 mutant, amino acid SEQ ID NO: 29 (TTYKLILNGKTLSGETTTIAVDAATAEKVLKQYANDNGVDGEWTYDDATKTFTVTE; also: GST-fused, end not given here) | 6.0
K13T/V21A/F30L/Y33F/D40E: GST-fused one-domain SpG-β1 mutant, amino acid SEQ ID NO: 51 (TTYKLILNGKTLTGETTTEAADAATAEKVLKQFANDNGVEGEWTYDDATKTFTVTE; also: GST-fused) | 4.8

Report KA Vs. Wild for K13S/E19V/F30L/Y33F: GST-fused one-domain SpG-β1 mutant, amino acid SEQ ID NO: 81 (TTYKLILNGKTLSGETTTVAVDAATAEKVLKQFANDNGVDGEWTYDDATKTFTVTE; also: GST-fused, end not given here) please.
4.1

Report KA Vs. Wild for K13T/E19I/V21N/K28I/F30L: GST-fused one-domain SpG-β1 mutant, amino acid SEQ ID NO: 37 (TTYKLILNGKTLTGETTTIANDAATAEIVLKQYANDNGVDGEWTYDDATKTFTVTE; also: GST-fused) please.
8.1

Report KA Vs. Wild for K13T/E15Q/E19I/E27D/V39I/D47H: GST-fused one-domain SpG-β1 mutant, amino acid SEQ ID NO: 77 (TTYKLILNGKTLTGQTTTIAVDAATADKVFKQYANDNGIDGEWTYDHATKTFTVTE; also: GST-fused) please.
4.9

Report KA Vs. Wild for K13T/E19I/K28I/F30L/Y33F/E42Q/D47Y: GST-fused one-domain SpG-β1 mutant, amino acid SEQ ID NO: 59 (TTYKLILNGKTLTGETTTIAVDAATAEIVLKQFANDNGVDGQWTYDYATKTFTVTE; also: GST-fused) please.
3.9

Report KA Vs. Wild for K13T/E19I/F30L/Y33F/V39I/D47H: GST-fused one-domain SpG-β1 mutant, amino acid SEQ ID NO: 23 (TTYKLILNGKTLTGETTTIAVDAATAEKVLKQFANDNGIDGEWTYDHATKTFTVTE; also: GST-fused) please.
5.5

====

# target_of_assay: anti-TNFα antibody-Fab (IgG-Fab derived from anti-TNFα monoclonal antibody, adalimumab) (Homo sapiens, UniProt P01834+P01857)
# Construct: cleaving a humanized monoclonal IgG formulation as a starting material into a Fab fragment and an Fc fragment by papain; purchased
# experiment_summary: Biacore 3000 surface plasmon resonance, affinity of SpG-β1 mutants for immobilized IgG-Fab
# Format: binding
# reported_conditions: Table 2, Example 3; GST-fused one-domain peptide; 25° C., pH 7.4
Where no end group is shown, it is not given here.
assay_metric: koff
Give your result as the value with the unit written after it.

Completed entries (count: 4):
substance | koff
K13S/E19V/F30L/Y33F: GST-fused one-domain SpG-β1 mutant, amino acid SEQ ID NO: 81 (TTYKLILNGKTLSGETTTVAVDAATAEKVLKQFANDNGVDGEWTYDDATKTFTVTE; also: GST-fused, end not given here) | 0.0064 s⁻¹
K10R/K13T/E15Q/K28R/F30L/D36G/E42V: GST-fused one-domain SpG-β1 mutant, amino acid SEQ ID NO: 69 (TTYKLILNGRTLTGQTTTEAVDAATAERVLKQYANGNGVDGVWTYDDATKTFTVTE; also: GST-fused, end not given here) | 0.0035 s⁻¹
K13T/E19I/F30L/Y33F: GST-fused one-domain SpG-β1 mutant, amino acid SEQ ID NO: 47 (TTYKLILNGKTLTGETTTIAVDAATAEKVLKQFANDNGVDGEWTYDDATKTFTVTE; also: GST-fused) | 0.0067 s⁻¹
K13T/E19I/F30L/D47N: GST-fused one-domain SpG-β1 mutant, amino acid SEQ ID NO: 43 (TTYKLILNGKTLTGETTTIAVDAATAEKVLKQYANDNGVDGEWTYDNATKTFTVTE; also: GST-fused) | 0.0073 s⁻¹

Note: attention shifts to another entry.
Report koff for K13T/E19I/F30L/D47A/K50E: GST-fused one-domain SpG-β1 mutant, amino acid SEQ ID NO: 65 (TTYKLILNGKTLTGETTTIAVDAATAEKVLKQYANDNGVDGEWTYDAATETFTVTE; also: GST-fused) please.
0.0062 s⁻¹
